Item-by-item account of IC50
Target: Recombinant STAT3 protein (STAT3(G127-I722)) (Homo sapiens, UniProt P40763)
Construct: STAT3(G127-I722)
Sequence (P40763 127-722, species assumed): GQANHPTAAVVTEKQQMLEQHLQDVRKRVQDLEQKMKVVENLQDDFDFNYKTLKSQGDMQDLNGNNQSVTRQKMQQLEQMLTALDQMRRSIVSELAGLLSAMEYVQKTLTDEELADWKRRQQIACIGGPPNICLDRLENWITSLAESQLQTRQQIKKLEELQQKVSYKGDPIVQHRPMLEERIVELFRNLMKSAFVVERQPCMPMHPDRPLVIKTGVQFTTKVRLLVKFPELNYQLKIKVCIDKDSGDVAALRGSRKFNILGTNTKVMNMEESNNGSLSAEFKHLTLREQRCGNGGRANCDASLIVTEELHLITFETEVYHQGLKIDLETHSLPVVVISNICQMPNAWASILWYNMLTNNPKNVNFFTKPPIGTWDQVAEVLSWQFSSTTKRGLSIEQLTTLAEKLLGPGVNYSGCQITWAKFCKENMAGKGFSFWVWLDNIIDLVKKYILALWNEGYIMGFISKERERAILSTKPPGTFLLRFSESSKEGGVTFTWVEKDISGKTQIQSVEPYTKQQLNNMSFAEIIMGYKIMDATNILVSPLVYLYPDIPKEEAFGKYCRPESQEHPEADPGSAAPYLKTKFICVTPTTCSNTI
Assay: STAT3 Fluorescence Polarization (FP) Assay
Conditions: STAT3(G127-I722) 25 nM, probe 5-FAM-GpYLPQTV-NH2 2 nM, 45-minute incubation

- COc1ccncc1C1CN(C(=O)[C@@H]2CC[C@@H]3C[C@@H]4C[C@@H]4C[C@H](NC(=O)c4cc5cc(C(F)P(=O)(O)O)ccc5s4)C(=O)N32)C1 (stereo partly shown) [Example 318]: < 100 nM

Please report the recorded IC50 for O=C(N[C@H]1C[C@@H]2C[C@@H]2C[C@H]2CC[C@@H](C(=O)N3CC(c4ccccn4)C3)N2C1=O)c1cc2cc(C(F)(F)P(=O)(O)O)ccc2s1 [Compound 97] .
< 100 nM

Please report the recorded IC50 for O=C(N[C@H]1C[C@H]2C[C@H]2C[C@H]2CC[C@@H](C(=O)N3CC(c4cccnc4)C3)N2C1=O)c1cc2cc(CP(=O)(O)O)ccc2s1 [Compound 22] .
100 to 1000 nM

Please report the recorded IC50 for O=C(N[C@H]1C[C@H]2C[C@H]2C[C@H]2CC[C@@H](C(=O)N3CC(c4ccon4)C3)N2C1=O)c1cc2cc([C@@H](F)P(=O)(O)O)ccc2s1 (single isomer, unassigned) [Example 344] .
< 100 nM

Please report the recorded IC50 for O=C(N[C@H]1C[C@@H]2C[C@@H]2C[C@H]2CC[C@@H](C(=O)N[C@@H]3CCN(c4ccccc4)C3)N2C1=O)c1cc2cc(C(F)(F)P(=O)(O)O)ccc2s1 [Compound 52] .
100 to 1000 nM

Please report the recorded IC50 for O=C(N[C@H]1C[C@@H]2C[C@@H]2C[C@H]2CC[C@@H](C(=O)Nc3ccc(-c4ccccc4)cc3)N2C1=O)c1cc2cc(C(F)(F)P(=O)(O)O)ccc2s1 [Compound 32] .
< 100 nM

Please report the recorded IC50 for CCc1ccncc1C1CN(C(=O)[C@@H]2CC[C@@H]3C[C@@H]4C[C@@H]4C[C@H](NC(=O)c4cc5cc([C@@H](F)P(=O)(O)O)ccc5s4)C(=O)N32)C1 (single isomer, unassigned) [Example 357] .
< 100 nM

Please report the recorded IC50 for O=C(N[C@H]1C[C@@H]2C[C@@H]2C[C@H]2CC[C@@H](C(=O)N3CC(C(=O)N4CC[C@@H](O)C4)C3)N2C1=O)c1cc2cc(C(F)(F)P(=O)(O)O)ccc2s1 [Compound 109] .
< 100 nM

Please report the recorded IC50 for Cc1ccc2c(c1)OCCN2C(=O)[C@@H]1CC[C@@H]2C[C@H]3C[C@H]3C[C@H](NC(=O)c3cc4cc(C(F)P(=O)(O)O)ccc4s3)C(=O)N21 (stereo partly shown) [Example 383] .
1000 to 10000 nM

Please report the recorded IC50 for O=C(N[C@H]1C[C@H]2C[C@H]2C[C@H]2CC[C@@H](C(=O)N[C@H]3CN(c4cccnc4)C[C@@H]3F)N2C1=O)c1cc2cc(CP(=O)(O)O)ccc2s1 [Example 253] .
< 100 nM
